// provenance: the supplement of paper PMC4466140

Parameter: SPOT peptide array binding signal intensity. Scope: all listed entries.
Tested system: ScFus1
Protocol: SPOT peptide array binding signal intensity (averaged, normalized) (arbitrary units (background-subtracted, floor 0; scale differs between SH3 domains)); higher = stronger binding of the SH3 domain to the peptide

# example entries with known answers
Give the measured SPOT peptide array binding signal intensity of `ATNVPVAPPPPPASL` .
≤ 0

Further, for `QPPLPSSAPPIPTSH` ?
≤ 0

Continuing:
Form field: reported SPOT peptide array binding signal intensity of `TSFKGRPKPPKTLKH`
≤ 0
